Test system: common (oilseed) sunflower
Experiment: Test C pre-/postemergence test
Type: in vivo, Helianthus annuus
Settings: 125 g ai/ha, preemergence; scale 0 (no effect) to 100 (complete control)
Sunflower plant response rating: recorded values
Enter a number only.

[
  {
    "molecule": "CCc1cc[n+]([O-])c([S+]([O-])Cc2c(C(F)(F)F)nn(C)c2OCC(F)(F)F)c1 (stereo not shown)",
    "tested target": "common (oilseed) sunflower",
    "Sunflower plant response rating": 85
  },
  {
    "molecule": "Cn1nc(C(F)(F)F)c(C[S+]([O-])c2ccc(F)c[n+]2[O-])c1OC(F)F (stereo not shown)",
    "tested target": "common (oilseed) sunflower",
    "Sunflower plant response rating": 35
  },
  {
    "molecule": "CCc1cc[n+]([O-])c(S(=O)(=O)Cc2c(C(F)(F)F)nn(C)c2OCC(F)(F)F)c1",
    "tested target": "common (oilseed) sunflower",
    "Sunflower plant response rating": 70
  }
]

Q) If you can, please state the reported Sunflower plant response rating value of C#CCOc1c(CS(=O)(=O)c2cccc[n+]2[O-])c(C(F)(F)F)nn1C .
A) 50

Q) If you can, please state the reported Sunflower plant response rating value of Cc1cc[n+]([O-])c(S(=O)(=O)C(Cl)c2c(C(F)(F)F)nn(C)c2OCC(F)(F)F)c1 (racemic) .
A) 0

Q) If you can, please state the reported Sunflower plant response rating value of CC(Oc1c(CS(=O)(=O)c2cccc[n+]2[O-])c(C(F)(F)F)nn1C)C(F)(F)F (stereo not shown) .
A) 45

Q) If you can, please state the reported Sunflower plant response rating value of Cn1nc(C(F)(F)F)c(CS(=O)(=O)c2cccc[n+]2[O-])c1OCC(F)F .
A) 50

----------
Tested on: giant foxtail
Experiment: Test A pre-/postemergence greenhouse test
Type: in vivo, Setaria faberi
Settings: Postemergence, 125 g ai/ha; 0 to 100 scale, 0 is no effect, 100 is complete control
Exam item: assign class 1 to entries whose Foxtail, Giant plant response rating is below 80 and class 0 to entries at or above 80. Note that a value of exactly 80 receives class 0.

Use the examples below as a reference point.
[
  {
    "molecule": "Cc1cc[n+]([O-])c(S(=O)(=O)C(Cl)c2c(C(F)(F)F)nn(C)c2OCC(F)(F)F)c1 (racemic)",
    "group label": "class 1"
  },
  {
    "molecule": "Cn1nc(C(F)(F)F)c(C[S+]([O-])c2ccc(Cl)c[n+]2[O-])c1OC(F)F (stereo not drawn)",
    "group label": "class 1"
  },
  {
    "molecule": "Cn1nc(C(F)(F)F)c(C(Cl)S(=O)(=O)c2cccc[n+]2[O-])c1OCC(F)(F)F (racemic)",
    "group label": "class 1"
  },
  {
    "molecule": "Cn1nc(C(F)(F)F)c(CS(=O)(=O)c2ccc(Br)c[n+]2[O-])c1OC(F)F",
    "group label": "class 1"
  }
]

Q) Problem: For the molecule Cn1nc(C(F)(F)F)c(CS(=O)(=O)c2cccc[n+]2[O-])c1Cl , is Foxtail, Giant plant response rating under 80?
A) class 0

----------
Tested on: kochia
Assay: Test F preemergence test
Type: in vivo, Kochia scoparia
Settings: 62 g ai/ha, Preemergence; scale 0 to 100
Excerpt: Seeds of plant species selected from bermudagrass (Cynodon dactylon), Surinam grass (Brachiaria decumbens), large crabgrass (Digitaria sanguinalis), green foxtail (Setaria viridis), goosegrass (Eleusine indica), johnsongrass (Sorghum halepense), kochia (Kochia scoparia), pitted morningglory (Ipomoea lacunosa), purple nutsedge (Cyperus rotundus), common ragweed (Ambrosia elation), mustard (Brassica nigra), guineagrass (Panicum maximum), […] […]
Kochia plant response rating: recorded values
Enter a number only.

[
  {
    "compound": "Cn1nc(C(F)(F)C(F)(F)F)c(C[S+]([O-])c2cccc[n+]2[O-])c1OCC(F)(F)F (stereo not shown)",
    "Kochia plant response rating": 100
  },
  {
    "compound": "Cn1nc(C(F)(F)F)c(CS(=O)(=O)c2cccc[n+]2[O-])c1OC(F)F",
    "Kochia plant response rating": 75
  }
]

Q) If you can, please state the reported Kochia plant response rating value of Cc1cc[n+]([O-])c(S(=O)(=O)Cc2c(C(F)(F)F)nn(C)c2OCC(F)(F)F)c1 .
A) 65

Q) If you can, please state the reported Kochia plant response rating value of Cc1cc[n+]([O-])c(S(=O)(=O)Cc2c(C(F)(F)F)nn(C)c2Cl)c1 .
A) 0

----------
Foxtail, Giant plant response rating: recorded values
Tested on: giant foxtail
Test: Test A pre-/postemergence greenhouse test
Assay type: in vivo, Setaria faberi
Conditions: Postemergence, 500 g ai/ha; 0 to 100 scale, 0 is no effect, 100 is complete control
Enter a number only.

Example entries begin here.
[
  {
    "molecule": "Cn1nc(C(F)(F)F)c(CS(=O)(=O)c2ccc(F)c[n+]2[O-])c1OC(F)F [Compound 107]",
    "tested target": "giant foxtail",
    "Foxtail, Giant plant response rating": 80
  },
  {
    "molecule": "CCc1cc[n+]([O-])c([S+]([O-])Cc2c(C(F)(F)F)nn(C)c2OCC(F)(F)F)c1 (stereo not shown) [Compound 59]",
    "tested target": "giant foxtail",
    "Foxtail, Giant plant response rating": 90
  },
  {
    "molecule": "CCCc1cc[n+]([O-])c(S(=O)(=O)Cc2c(C(F)(F)F)nn(C)c2OCC(F)(F)F)c1 [Compound 115]",
    "tested target": "giant foxtail",
    "Foxtail, Giant plant response rating": 80
  }
]

Attention now turns to another entry.
Q) If you can, please state the reported Foxtail, Giant plant response rating value of CCc1cc[n+]([O-])c(S(=O)(=O)Cc2c(C(F)(F)F)nn(C)c2OC(F)F)c1 [Compound 102] .
A) 90

----------
System: common ragweed
Test: Test C pre-/postemergence test
Type: in vivo, Ambrosia elation
Details: preemergence, 250 g ai/ha; scale 0 (no effect) to 100 (complete control)
Ragweed plant response rating: recorded values
Enter a number only.

Example entries begin here.
[
  {
    "compound": "CCc1cc[n+]([O-])c([S+]([O-])Cc2c(C(F)(F)F)nn(C)c2OC(F)F)c1 (stereo not drawn)",
    "Ragweed plant response rating": 100
  },
  {
    "compound": "CCc1cc[n+]([O-])c([S+]([O-])Cc2c(C(F)(F)F)nn(C)c2OCC(F)(F)F)c1 (stereo not drawn)",
    "Ragweed plant response rating": 100
  },
  {
    "compound": "Cn1nc(C(F)(F)F)c(C(Cl)S(=O)(=O)c2cccc[n+]2[O-])c1OC(F)F (stereo not drawn)",
    "Ragweed plant response rating": 85
  },
  {
    "compound": "Cc1cc([S+]([O-])Cc2c(C(F)(F)F)nn(C)c2OCC(F)(F)F)[n+]([O-])cc1Cl (stereo not drawn)",
    "Ragweed plant response rating": 100
  },
  {
    "compound": "C#CCOc1c(C[S+]([O-])c2cccc[n+]2[O-])c(C(F)(F)F)nn1C (stereo not drawn)",
    "Ragweed plant response rating": 100
  }
]

Q) If you can, please state the reported Ragweed plant response rating value of CC(c1c(C(F)(F)F)nn(CC(F)(F)F)c1Cl)[S+]([O-])c1cccc[n+]1[O-] (stereo not drawn) .
A) 60

Q) If you can, please state the reported Ragweed plant response rating value of C#CCOc1c(CS(=O)(=O)c2cccc[n+]2[O-])c(C(F)(F)F)nn1C .
A) 85

Q) If you can, please state the reported Ragweed plant response rating value of Cn1nc(C(F)(F)F)c(C[S+]([O-])c2ccc(Cl)c[n+]2[O-])c1OCC(F)(F)F (racemic) .
A) 100

Q) If you can, please state the reported Ragweed plant response rating value of Cc1cc[n+]([O-])c(S(=O)(=O)Cc2c(C(F)(F)F)nn(C)c2OC(C)C(F)(F)F)c1 (stereo not drawn) .
A) 100

----------
System: crabgrass
Experiment: Test A pre-/postemergence greenhouse test
Format: in vivo, Digitaria sanguinalis
Settings: Postemergence, 500 g ai/ha; 0 to 100 scale, 0 is no effect, 100 is complete control
readout label: Crabgrass, Large plant response rating
Enter a number only.

[
  {
    "compound": "Cn1nc(C(F)(F)F)c(CS(=O)(=O)c2cccc[n+]2[O-])c1OC(F)F",
    "Crabgrass, Large plant response rating": 80
  },
  {
    "compound": "Cc1cc[n+]([O-])c(S(=O)(=O)Cc2c(C(F)(F)F)nn(C)c2OC(F)F)c1",
    "Crabgrass, Large plant response rating": 90
  },
  {
    "compound": "CCn1nc(C(F)(F)F)c(C[S+]([O-])c2cccc[n+]2[O-])c1OCC(F)(F)F (racemic)",
    "Crabgrass, Large plant response rating": 90
  }
]

Attention now turns to another entry.
Q) If you can, please state the reported Crabgrass, Large plant response rating value of CCCc1cc[n+]([O-])c([S+]([O-])Cc2c(C(F)(F)F)nn(C)c2OC(F)F)c1 (stereo not shown) .
A) 80
